System: MDA-MB-231 human breast cancer cells
test_summary: Cell proliferation assay (CellTiter-Glo, 72 hours treatment)
Assay type: cell-based
experimental_setup: Homo sapiens; MDA-MB-231 cells, 72 hours at 37° C., CellTiter-Glo; read-out: MDA-MB-231 cell proliferation assay (IC50)
Method: Human tumor cell lines were cultured in the appropriate media (DMEM and RPMI) supplemented with penicillin G (100 U/ml), streptomycin (100 μg/ml), 10% FBS in a humidified atmosphere of 5% CO2 maintained at 37° C. Exponentially growing cells were seeded at 2,500 cells/well in 96 well plates prior to drug treatment. […] Following compound treatment, cell proliferation was assessed by CellTiter-Glo assay (Promega, Madison Wis.) according to the manufacturer's protocol. […]
pIC50: −log10 of the molar value.
Recorded pIC50 for the following compounds
reported_metric: pIC50

# compound, target_or_test_system, value_measured
data = [
    ("CNc1cc2c(c(OC)n1)[C@]1(O)[C@H](O)[C@H](CN(C)C)[C@@H](c3ccccc3)[C@]1(c1ccc(C#N)cc1)O2 (racemic) [150F]", "MDA-MB-231 human breast cancer cells", "> 7.00"),
    ("CNS(=O)(=O)[C@H]1[C@@H](O)[C@@]2(O)c3ncc(Cl)cc3O[C@@]2(c2ccc(C#N)cc2)[C@@H]1c1ccccc1 (racemic) [125F]", "MDA-MB-231 human breast cancer cells", "< 6.00"),
    ("O=C1C[C@@H](c2ccccc2)[C@]2(c3ccc(Br)cc3)Oc3cc(Cl)cnc3[C@]12O (racemic) [129F]", "MDA-MB-231 human breast cancer cells", "< 6.00"),
    ("COc1cncc2c1[C@]1(O)[C@H](O)[C@H](C(=O)N3CCCCC3)[C@@H](c3ccccc3)[C@]1(c1ccc(Br)cc1)O2 (racemic) [257F]", "MDA-MB-231 human breast cancer cells", "> 7.00"),
    ("CCN(CC)C[C@H]1[C@@H](O)[C@@]2(O)c3c(cc(Cl)nc3OC)O[C@@]2(c2ccc(C#N)cc2)[C@@H]1c1ccccc1 (racemic) [159Fb]", "MDA-MB-231 human breast cancer cells", "> 7.00"),
    ("COc1nc(Cl)cc2c1[C@]1(O)[C@H](O)[C@H](CNCC(F)F)[C@@H](c3ccccc3)[C@]1(c1ccc(C#N)cc1)O2 (racemic) [196F]", "MDA-MB-231 human breast cancer cells", "> 7.00"),
    ("CC1(C)COCCN1C[C@H]1[C@@H](O)[C@@]2(O)c3ncc(Cl)cc3O[C@@]2(c2ccc(Br)cc2)[C@@H]1c1ccccc1 (racemic) [214F]", "MDA-MB-231 human breast cancer cells", "6.00 to 7.00"),
    ("COc1cncc2c1[C@]1(O)[C@H](O)[C@H](CN3CCCC3)[C@@H](c3ccccc3)[C@]1(c1ccc(C#N)cc1)O2 (racemic) [72F]", "MDA-MB-231 human breast cancer cells", "6.00 to 7.00"),
    ("COc1cncc2c1[C@]1(O)[C@H](O)[C@H](C(=O)N(C)C3COC3)[C@@H](c3ccccc3)[C@]1(c1ccc(Br)cc1)O2 (racemic) [237F]", "MDA-MB-231 human breast cancer cells", "> 7.00"),
    ("Clc1cnc2c(c1)O[C@@]1(c3ccc(Br)cc3)[C@H](c3ccccc3)C[C@@H]3O[C@@]231 (racemic) [63F]", "MDA-MB-231 human breast cancer cells", "< 6.00"),
    ("COc1cc2c(c(OC)n1)[C@]1(O)[C@H](O)[C@H](C(=O)N(C)C)[C@@H](c3ccccc3)[C@]1(c1ccc(Br)cc1)O2 (racemic) [229F]", "MDA-MB-231 human breast cancer cells", "> 7.00"),
    ("COc1nccc2c1[C@]1(O)[C@H](O)[C@H](CN(C)C)[C@@H](c3ccccc3)[C@]1(c1ccc(C(F)F)cc1)O2 (racemic) [148F]", "MDA-MB-231 human breast cancer cells", "< 6.00"),
    ("CNC[C@H]1[C@@H](O)[C@@]2(O)c3c(cc(C#N)nc3OC)O[C@@]2(c2ccc(C#N)cc2)[C@@H]1c1ccccc1 (racemic) [225F]", "MDA-MB-231 human breast cancer cells", "> 7.00"),
]
